Endpoint: CO2 permeability (Barrer)
Give just the number in Barrer; leave the unit off.

Example entries begin here.
Q. Bench note: what CO2 permeability did *c1c(C)cc2c(c1C)C1c3ccccc3C2c2cc(C)c(-n3c(=O)c4cc5oc6cc7c(cc6oc5cc4c3=O)C3(C(C)C)c4ccccc4C7(C(C)C)c4cc5oc6cc7c(=O)n(*)c(=O)c7cc6oc5cc43)c(C)c21 (repeat unit) show?
A. 5010

Q. So what's the measured CO2 permeability for this one? *O[Si](*)(C)CCCCCCCC (repeat unit)
A. 932

Q. Give the measured CO2 permeability of *c1ccc(Oc2ccc(S(=O)(=O)c3ccc(Oc4ccc(N5C(=O)c6ccc(-c7ccc8c(c7)C(=O)N(*)C8=O)cc6C5=O)cc4)cc3)cc2)cc1 (repeat unit) .
A. 1.85

Q. CO2 permeability for */C=C/C1CC(*)CC1[Si](C)(C)C[Si](C)(C)C (repeat unit) ?
A. 67

Proceeding to the next compound to report its CO2 permeability.
Q. Reported CO2 permeability, compound *C(=O)c1ccc(C2(c3ccc(C(=O)c4ccc(Oc5ccc(C(=O)c6ccc(C(=O)c7ccc(Oc8ccc(*)cc8)cc7)cc6)cc5)cc4)cc3)OC(=O)c3ccccc32)cc1 (repeat unit) : ____
A. 2.14
